biological target: Alpha-1D adrenergic receptor (Rattus norvegicus, UniProt P23944); experiment: In vitro binding affinity using [3H]prazosin as radioligand against alpha-1D adrenergic receptor expressed in LTK cell; format: cell-based
Sequence (P23944 whole entry): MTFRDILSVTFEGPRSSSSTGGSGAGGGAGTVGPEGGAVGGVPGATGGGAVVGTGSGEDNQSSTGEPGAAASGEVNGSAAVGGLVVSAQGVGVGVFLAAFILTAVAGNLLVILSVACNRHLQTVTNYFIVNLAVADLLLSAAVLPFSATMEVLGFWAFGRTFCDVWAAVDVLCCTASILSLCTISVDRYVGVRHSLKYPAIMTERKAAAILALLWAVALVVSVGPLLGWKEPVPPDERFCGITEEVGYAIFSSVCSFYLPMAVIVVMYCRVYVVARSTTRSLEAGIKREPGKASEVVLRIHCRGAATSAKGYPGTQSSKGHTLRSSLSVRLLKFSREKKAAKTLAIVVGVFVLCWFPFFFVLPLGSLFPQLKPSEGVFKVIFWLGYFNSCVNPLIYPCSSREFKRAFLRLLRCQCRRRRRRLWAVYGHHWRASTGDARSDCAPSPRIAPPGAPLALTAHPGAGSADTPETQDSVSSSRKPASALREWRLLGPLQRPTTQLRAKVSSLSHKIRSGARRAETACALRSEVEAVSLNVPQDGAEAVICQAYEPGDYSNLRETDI
Listed compounds paired with reported log10 of Ki
parameter: log10 of Ki (log10 of the value in nM)

COc1cccc2c1CC[C@H]1CN(CCn3c(=O)[nH]c4c(sc5ccc(C)cc54)c3=O)C[C@@H]21 ... 0.02
COc1cccc2c1CC[C@H]1CN(CCn3c(=O)[nH]c4c(sc5cccc(Cl)c54)c3=O)C[C@@H]21 ... 0.12
COc1cccc2c1CCC1CN(CCn3c(=O)[nH]c4c(oc5ccccc54)c3=O)CC21 (cis isomer) ... -0.17
COc1cccc2c1CC[C@H]1CN(CCn3c(=O)[nH]c4c(sc5cccc(C)c54)c3=O)C[C@@H]21 ... -0.06
COc1cccc2c1CC[C@H]1CN(CCn3c(=O)[nH]c4c(sc5cccc(C#N)c54)c3=O)C[C@@H]21 ... 0.82
COc1cccc2c1CC[C@H]1CN(CCn3c(=O)[nH]c4c(sc5cc(C#N)ccc54)c3=O)C[C@@H]21 ... -0.13
COc1cccc2c1CC[C@H]1CN(CCn3c(=O)[nH]c4c(sc5cc(C(F)(F)F)ccc54)c3=O)C[C@@H]21 ... 0.84
COc1cccc2c1CC[C@H]1CN(CCn3c(=O)[nH]c4c(sc5ccc(C#N)cc54)c3=O)C[C@@H]21 ... -0.23
COc1cccc2c1CC[C@H]1CN(CCn3c(=O)[nH]c4c(sc5ncccc54)c3=O)C[C@@H]21 ... -0.16
COc1cnc2sc3c(=O)n(CCN4C[C@@H]5CCc6c(OC)cccc6[C@@H]5C4)c(=O)[nH]c3c2n1 ... 0.04
COc1cccc2c1CC[C@H]1CN(CCn3c(=O)[nH]c4c(sc5c(OC)ccnc54)c3=O)C[C@@H]21 ... 0.15
